assaySummary: AUC in rat at 10 mg/kg, po
Assay type: ADME, organism-based
Design: dose 10 mg/kg, route oral
measurementParameters: plasma
metricName: AUC (µM·h)
Just the number in µM·h, nothing appended.

givenSmiles	metricName	recordedMeasurement
Cc1cn2c(-c3cn[nH]c3)cnc2c(Nc2ccc(C(=O)N3CCOCC3)c(Cl)c2)n1	AUC	12.6

Now for the compound whose AUC we want.
[Q] Give AUC for the following compound: `O=C(c1ccc(Nc2nc(C3CC3)cn3c(-c4cn[nH]c4)cnc23)c(F)c1)N1CCOCC1`
[A] 31.1

* * *

assaySummary: Cmax in mouse at 100 mg/kg, po
Format: ADME, organism-based
Design: dose 100 mg/kg, route oral
measurementParameters: in vivo
metricName: Cmax (nM)
Just the number in nM, nothing appended.

[Q] Give Cmax for the following molecule: `Cc1cn2c(-c3cn[nH]c3)cnc2c(Nc2ccc(C(=O)N3CCNCC3)cc2F)n1`
[A] 1600

* * *

targetOrTestSystem: Protein-tyrosine kinase 6 (Homo sapiens)
Sequence (Q13882 whole entry): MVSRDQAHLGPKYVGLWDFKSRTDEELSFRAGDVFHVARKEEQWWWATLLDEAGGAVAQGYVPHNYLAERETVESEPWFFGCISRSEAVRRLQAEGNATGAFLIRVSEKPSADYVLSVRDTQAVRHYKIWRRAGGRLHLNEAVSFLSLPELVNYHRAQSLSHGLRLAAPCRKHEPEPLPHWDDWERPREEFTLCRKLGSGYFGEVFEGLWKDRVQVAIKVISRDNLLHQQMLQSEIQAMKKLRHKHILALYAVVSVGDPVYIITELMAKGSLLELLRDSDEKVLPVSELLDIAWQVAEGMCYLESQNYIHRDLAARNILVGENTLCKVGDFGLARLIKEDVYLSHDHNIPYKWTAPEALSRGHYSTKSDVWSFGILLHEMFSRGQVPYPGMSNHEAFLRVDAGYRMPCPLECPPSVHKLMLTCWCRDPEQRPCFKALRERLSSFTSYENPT
assaySummary: Inhibition of phosphorylation of SAM68 in 293 WT-PTK6 cells after 3 hrs
Format: functional, cell-based
metricName: IC50 (nM)
Just the number in nM, nothing appended.

[Q] Give IC50 for the following compound: `Cc1cn2c(-c3cn[nH]c3)cnc2c(Nc2ccc(C(=O)N3CCNCC3(C)C)c(Cl)c2)n1`
[A] 23

[Q] Give IC50 for the following compound: `CC1(C)CNCCN1C(=O)c1ccc(Nc2nc(C3CC3)cn3c(-c4cn[nH]c4)cnc23)c(F)c1`
[A] 7

[Q] Give IC50 for the following compound: `Cc1cn2c(-c3cn[nH]c3)cnc2c(Nc2ccc(C(=O)N3C[C@H]4CC[C@@H]3CN4)c(Cl)c2)n1`
[A] 47

[Q] Give IC50 for the following compound: `Cc1cn2c(-c3cn[nH]c3)cnc2c(Nc2ccc(C(=O)N3CCNCC3(C)C)cc2F)n1`
[A] 46

[Q] Give IC50 for the following compound: `CC1(C)CN(C(=O)c2ccc(Nc3nc(C4CC4)cn4c(-c5cn[nH]c5)cnc34)cc2Cl)CCN1`
[A] 47

[Q] Give IC50 for the following compound: `Cc1cn2c(-c3cn[nH]c3)cnc2c(Nc2ccnc(N3CCNCC3)c2)n1`
[A] 109

[Q] Give IC50 for the following compound: `Cc1cn2c(-c3cn[nH]c3)cnc2c(Nc2ccc(C(=O)N3CCNCC34CC4)c(Cl)c2)n1`
[A] 42

[Q] Give IC50 for the following compound: `O=C(c1ccc(Nc2nc(C3CC3)cn3c(-c4cn[nH]c4)cnc23)c(F)c1)N1CCNCC1`
[A] 7

[Q] Give IC50 for the following compound: `Cc1cn2c(-c3cn[nH]c3)cnc2c(Nc2ccc(C(=O)N3CCC(O)CC3)c(Cl)c2)n1`
[A] 120

[Q] Give IC50 for the following compound: `CC1(C)CNCCN1C(=O)c1ccc(Nc2nc(C3CC3)cn3c(-c4cn[nH]c4)cnc23)cc1Cl`
[A] 5

[Q] Give IC50 for the following compound: `Cc1cn2c(-c3cn[nH]c3)cnc2c(Nc2ccc(C(=O)N3CCCCC3)c(Cl)c2)n1`
[A] 608

[Q] Give IC50 for the following compound: `O=C(c1ccc(Nc2nc(C3CC3)cn3c(-c4cn[nH]c4)cnc23)cc1Cl)N1CCNCC1`
[A] 22

[Q] Give IC50 for the following compound: `O=C(c1ccc(Nc2nc(C3CC3)cn3c(-c4cn[nH]c4)cnc23)cc1Cl)N1C[C@H]2CC[C@@H](C1)N2`
[A] 17

[Q] Give IC50 for the following compound: `Cc1cn2c(-c3cn[nH]c3)cnc2c(Nc2cncc(N3CCNCC3)c2)n1`
[A] 244

[Q] Give IC50 for the following compound: `Cc1cn2c(-c3cn[nH]c3)cnc2c(Nc2ccc(C(=O)N3CCNCC3)c(C(F)(F)F)c2)n1`
[A] 35

[Q] Give IC50 for the following compound: `Cc1cn2c(-c3cn[nH]c3)cnc2c(Nc2ccc(C(=O)N3CCNC4(CC4)C3)c(Cl)c2)n1`
[A] 62
